Origin of the recorded values: the FLAb antibody collection (doi:10.7554/elife.23156)

Give pKd for every item shown.
B1: scFv; the commonest letter at each place (parent)
chain 1: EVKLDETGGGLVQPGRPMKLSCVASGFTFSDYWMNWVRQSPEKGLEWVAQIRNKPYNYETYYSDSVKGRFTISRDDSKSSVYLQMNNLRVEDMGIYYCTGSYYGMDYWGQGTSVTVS
chain 2: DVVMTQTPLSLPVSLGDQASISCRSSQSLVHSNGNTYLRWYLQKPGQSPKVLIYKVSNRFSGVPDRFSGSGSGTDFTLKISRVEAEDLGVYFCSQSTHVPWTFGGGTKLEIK

- Variants of: B1
- Test name: Kd (Tite-Seq)
- Condition: with fluorescein; format: scFv 4-4-20, heavy + light
pKd here is simply -log10 of the concentration when that concentration is written in mol/L.

(Q) Could you share which pKd value was measured for chain 1 D31R ?
(A) 8.69

(Q) Data request, read-out pKd, for chain 1 Y102W Y107F
(A) 8.80

(Q) Give the measured pKd of chain 1 D31L V37K .
(A) 5.02

(Q) Need pKd of chain 1 M105A W108L , thanks.
(A) 8.74

(Q) // query pKd value for entry chain 1 Y32F M34F
(A) 8.25
